# tgt: T1, human IL-23 (human, UniProt P29460 23-328; Q9NPF7 20-189)
# T1 construct: Recombinant (Ebioscience); HIS-tagged in flow cytometry, biotinylated in some assays; also called hIL-23; rhIL-23
# T1 sequence 1: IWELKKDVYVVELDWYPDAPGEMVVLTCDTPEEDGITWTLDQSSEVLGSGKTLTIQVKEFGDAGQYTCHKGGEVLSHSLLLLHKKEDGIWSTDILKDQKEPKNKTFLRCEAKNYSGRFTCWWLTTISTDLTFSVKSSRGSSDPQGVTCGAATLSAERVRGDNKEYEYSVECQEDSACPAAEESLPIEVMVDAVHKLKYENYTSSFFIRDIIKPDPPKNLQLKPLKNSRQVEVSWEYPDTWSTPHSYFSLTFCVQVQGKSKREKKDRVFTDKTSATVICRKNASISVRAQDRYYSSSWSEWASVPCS
# T1 sequence 2: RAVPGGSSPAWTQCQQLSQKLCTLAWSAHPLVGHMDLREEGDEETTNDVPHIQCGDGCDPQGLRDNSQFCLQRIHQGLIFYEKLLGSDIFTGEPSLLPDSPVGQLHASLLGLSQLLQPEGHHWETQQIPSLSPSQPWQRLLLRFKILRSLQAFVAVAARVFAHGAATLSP
# protocol_text: SPR, purified scFv captured via FLAG
measured_endpoint: kon (M⁻¹ s⁻¹)
Express it in M⁻¹ s⁻¹; write the number only.

Answered examples (2):
[[record]]
binder = "scFv CP-A6 (scFv, scFv-80 variant: VH Y59H; not shown: proprietary C-terminal FLAG tag) scFv: QVQLVQSGAEVKKPGASVKVSCKASGYTFTDYYLHWVRQAPGQGLEWMGWIDPENGDTEHAPKFQGRVTMTTDTSTSTAYMELRSLRSDDTAVYYCNANKELRYFDVWGQGTMVTVSSGGGGSGGGGSGGGGSEIVMTQSPATLSVSPGERATLSCRASQSISINLHWYQQKPGQAPRLLIYFASQSISGIPARFSGSGSGTEFTLTISSLQSEDFAVYYCQQSNSFPLTFGGGTKVEIKR"
units = "M⁻¹ s⁻¹"
val = 310000

[[record]]
binder = "scFv AW-F2 (scFv, scFv-80 variant: VH Y59S; not shown: proprietary C-terminal FLAG tag) scFv: QVQLVQSGAEVKKPGASVKVSCKASGYTFTDYYLHWVRQAPGQGLEWMGWIDPENGDTESAPKFQGRVTMTTDTSTSTAYMELRSLRSDDTAVYYCNANKELRYFDVWGQGTMVTVSSGGGGSGGGGSGGGGSEIVMTQSPATLSVSPGERATLSCRASQSISINLHWYQQKPGQAPRLLIYFASQSISGIPARFSGSGSGTEFTLTISSLQSEDFAVYYCQQSNSFPLTFGGGTKVEIKR"
units = "M⁻¹ s⁻¹"
val = 350000


Here is the next item to consider.
Q: What measured kon goes with scFv AU-G9 (scFv, scFv-80 variant: VH Q43R; VL I55T; not shown: proprietary C-terminal FLAG tag) scFv: QVQLVQSGAEVKKPGASVKVSCKASGYTFTDYYLHWVRQAPGRGLEWMGWIDPENGDTEYAPKFQGRVTMTTDTSTSTAYMELRSLRSDDTAVYYCNANKELRYFDVWGQGTMVTVSSGGGGSGGGGSGGGGSEIVMTQSPATLSVSPGERATLSCRASQSISINLHWYQQKPGQAPRLLIYFASQSTSGIPARFSGSGSGTEFTLTISSLQSEDFAVYYCQQSNSFPLTFGGGTKVEIKR ?
A: 340000

The values you see were collected from patent US20110262445A1.
